Origin of measurements: patent US11667602B2

# TARGET_SYSTEM: human RXFP1 (Homo sapiens)
# Sequence (Q9HBX9 whole entry): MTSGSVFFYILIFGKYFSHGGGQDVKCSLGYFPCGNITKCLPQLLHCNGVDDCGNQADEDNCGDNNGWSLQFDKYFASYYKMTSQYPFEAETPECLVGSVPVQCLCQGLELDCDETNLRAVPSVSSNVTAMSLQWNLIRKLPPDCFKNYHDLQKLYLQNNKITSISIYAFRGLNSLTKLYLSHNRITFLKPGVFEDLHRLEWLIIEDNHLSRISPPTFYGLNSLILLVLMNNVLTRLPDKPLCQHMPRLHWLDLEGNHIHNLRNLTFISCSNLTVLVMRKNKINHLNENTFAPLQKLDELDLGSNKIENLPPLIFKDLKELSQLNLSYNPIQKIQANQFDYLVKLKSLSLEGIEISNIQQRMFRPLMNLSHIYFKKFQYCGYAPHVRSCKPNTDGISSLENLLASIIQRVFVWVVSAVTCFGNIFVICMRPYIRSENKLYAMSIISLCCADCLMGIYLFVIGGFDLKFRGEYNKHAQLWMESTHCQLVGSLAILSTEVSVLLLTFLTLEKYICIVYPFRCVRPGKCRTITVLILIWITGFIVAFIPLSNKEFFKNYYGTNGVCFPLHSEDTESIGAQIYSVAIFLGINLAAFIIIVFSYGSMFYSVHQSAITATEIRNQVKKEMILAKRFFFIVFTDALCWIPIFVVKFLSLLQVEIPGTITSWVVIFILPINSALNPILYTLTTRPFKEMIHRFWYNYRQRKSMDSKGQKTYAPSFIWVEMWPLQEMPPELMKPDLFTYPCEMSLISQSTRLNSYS
# ASSAY_NOTES: RXFP1 Hu cAMP (Test A)
# Format: cell-based
# Design: expressed in transfected cells; host or cells: Jump-In T-REx CHO-K1 cells (ThermoFisher), induced with 10 ng/ml doxycycline for 24 h
# CONDITIONS: RXFP1 Hu cAMP; read-out: Test A EC50
pEC50: −log10 of the molar value.
PARAMETER: pEC50

Please review the entries below; each comes with its answer.
>  <MOLECULE>
COc1cc(C#N)c(-c2ccc(OCC(=O)O)cc2)cc1C(=O)N[C@@H]1[C@H]2CC[C@H](C2)[C@@H]1C(=O)Nc1cccc(S(=O)(=O)C(F)(F)F)c1 [Example 329]

>  <RECORDED_VALUE>
6.85

$$$$
>  <MOLECULE>
COc1cc(C#N)c(O[C@H]2CC[C@@](C)(C(=O)O)CC2)cc1C(=O)N[C@@H]1C2CCC(CC2)[C@@H]1C(=O)NCC1(C)CCC1 (racemic) [Example 468]

>  <RECORDED_VALUE>
8.39

$$$$
>  <MOLECULE>
COc1cc(F)c(O[C@H]2CC[C@@](C)(C(=O)O)CC2)cc1C(=O)Nc1cnccc1C(=O)NCC1(C)CCC1 [Example 150]

>  <RECORDED_VALUE>
6.34

$$$$
>  <MOLECULE>
COc1cc(F)c(-c2cc(C)c(C(=O)O)c(C)c2)cc1C(=O)N[C@@H]1[C@H]2CC[C@H](C2)[C@@H]1C(=O)Nc1cccc(S(=O)(=O)C(F)(F)F)c1 [Example 252]

>  <RECORDED_VALUE>
6.11

$$$$

A = COc1cc(C#N)c(Oc2ccc(C(=O)O)cc2)cc1C(=O)N[C@@H]1[C@H]2CC[C@H](C2)[C@@H]1C(=O)NCC1(C)CCC1 [Example 483]
B = COc1cc(C#N)c(O[C@H]2CC[C@@](C)(C(=O)O)CC2)cc1C(=O)N[C@@H]1[C@@H]2CC[C@@H](C2)[C@@H]1C(=O)NCC(C)(C)C(F)(F)F [Example 502]
*Q* Could you tell me which of these two has the smaller pEC50 figure? First: A Second: B Lab note: record the label of whichever item you select.
*A* A
(A: 6.21, B: 8.07)
